I'd be grateful if you could share measured koff for these entries.
Molecular target: T1, recombinant human interleukin 12 (p40/p35 heterodimer) (human, UniProt P29460 23-328; P29459 23-219)
T1 chain 1: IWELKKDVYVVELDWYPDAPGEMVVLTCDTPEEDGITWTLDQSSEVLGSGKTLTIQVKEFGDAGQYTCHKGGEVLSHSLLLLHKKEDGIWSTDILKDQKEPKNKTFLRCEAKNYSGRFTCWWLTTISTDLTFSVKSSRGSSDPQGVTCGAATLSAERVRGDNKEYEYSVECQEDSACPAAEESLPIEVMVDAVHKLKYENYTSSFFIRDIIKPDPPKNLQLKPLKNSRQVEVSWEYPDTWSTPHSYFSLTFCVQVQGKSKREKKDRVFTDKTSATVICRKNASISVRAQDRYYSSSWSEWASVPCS
T1 chain 2: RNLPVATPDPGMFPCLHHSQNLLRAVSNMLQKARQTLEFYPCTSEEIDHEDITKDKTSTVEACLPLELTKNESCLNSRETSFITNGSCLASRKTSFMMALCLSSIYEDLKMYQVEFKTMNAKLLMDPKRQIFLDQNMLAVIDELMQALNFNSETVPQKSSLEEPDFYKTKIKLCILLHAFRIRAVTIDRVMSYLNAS
Test: BIAcore
The answer should read as a number with its unit following.

Record summary for HIRYDGSNKYYADSVKG [Y61 H50 H] : reported koff = 0.000309 s⁻¹

Record summary for FIRYDESNKYYADSVKG [Y61 H54 E] : reported koff = 0.000351 s⁻¹

Record summary for FIRYDYSNKYYADSVKG [Y61 H54 Y] : reported koff = 0.000646 s⁻¹

Record summary for FIRYDRSNKYYADSVKG [Y61 H54 R] : reported koff = 2.5e-05 s⁻¹

Record summary for FIYYDGSNKYYADSVKG [Y61 H52 Y] : reported koff = 0.000298 s⁻¹

Record summary for FIRYEGSNKYYADSVKG [Y61 H53 E] : reported koff = 0.000399 s⁻¹

Record summary for FIRYRGSNKYYADSVKG [Y61 H53 R] : reported koff = 0.00167 s⁻¹

Record summary for FIHYDGSNKYYADSVKG [Y61 H52 H] : reported koff = 0.000407 s⁻¹

Record summary for FIRYSGSNKYYADSVKG [Y61 H53 S] : reported koff = 0.000368 s⁻¹

Record summary for FIWYDGSNKYYADSVKG [Y61 H52 W] : reported koff = 0.000351 s⁻¹

Record summary for FIAYDGSNKYYADSVKG [Y61 H52 A] : reported koff = 0.000171 s⁻¹

Record summary for FIRYLGSNKYYADSVKG [Y61 H53 L] : reported koff = 0.0011 s⁻¹

Record summary for FIQYDGSNKYYADSVKG [Y61 H52 Q] : reported koff = 0.000285 s⁻¹

Record summary for FIEYDGSNKYYADSVKG [Y61 H52 E] : reported koff = 0.000318 s⁻¹

Record summary for FIVYDGSNKYYADSVKG [Y61 H52 V] : reported koff = 0.000317 s⁻¹

Record summary for FISYDGSNKYYADSVKG [Y61 H52 S] : reported koff = 0.000292 s⁻¹

Record summary for FITYDGSNKYYADSVKG [Y61 H52 T] : reported koff = 0.000374 s⁻¹

Record summary for FIRYVGSNKYYADSVKG [Y61 H53 V] : reported koff = 0.00044 s⁻¹

Record summary for FIRYDNSNKYYADSVKG [Y61 H54 N] : reported koff = 0.000447 s⁻¹

Record summary for FIRYDTSNKYYADSVKG [Y61 H54 T] : reported koff = 0.000644 s⁻¹

Record summary for FIRYDKSNKYYADSVKG [Y61 H54 K] : reported koff = 0.000407 s⁻¹

Record summary for LIRYDGSNKYYADSVKG [Y61 H50 L] : reported koff = 0.00044 s⁻¹

Record summary for FIRYDVSNKYYADSVKG [Y61 H54 V] : reported koff = 0.000435 s⁻¹

Record summary for FIGYDGSNKYYADSVKG [Y61 H52 G] : reported koff = 0.000321 s⁻¹

Record summary for FIRYDDSNKYYADSVKG [Y61 H54 D] : reported koff = 0.000455 s⁻¹

Record summary for FILYDGSNKYYADSVKG [Y61 H52 L] : reported koff = 0.000347 s⁻¹

Record summary for FIRYQGSNKYYADSVKG [Y61 H53 Q] : reported koff = 0.000792 s⁻¹

Record summary for FIRYDQSNKYYADSVKG [Y61 H54 Q] : reported koff = 0.000316 s⁻¹

Record summary for FIRYDSSNKYYADSVKG [Y61 H54 S] : reported koff = 0.000373 s⁻¹
